- Test system: NCI-H460 lung
- experimental.protocol: NCI-60 one-dose screen, 48 h (100 = growth as untreated, 0 = no growth, -100 = all killed)
- condition.description: 10 µM unless noted
Compounds without any hit were thinned out: in the full panel of roughly 83,000, 20% have a hit.
measurement.label: growth (%)

| compound | recorded.measurement |
| --- | --- |
| CCOC(=O)c1cn2c3c(cc(F)cc3c1=O)C(CC)c1ccccc1C2 (stereo unspecified) | 101 |
| CC(=O)N(CC(O)CO)c1c(I)c(C(=O)NCCO)c(I)c(C(=O)NCC(O)CO)c1I (stereo unspecified) | 111 |
| Cc1nc2cc(Nc3nc(Nc4ccc(F)cc4)nc(N4CCN(C)CC4)n3)ccc2n1Cc1ccccc1 | 3.42 |
| Cc1cc(C)c(S(=O)O)c(C)c1 | 109 |
| O=C1/C(=C/c2ccccc2F)CNC/C1=C\c1ccccc1F | -29.7 |
| C=C(C)CCCC(C)CC#N (stereo unspecified) | 107 |
| CC(C)N1CCN(c2ccc(OC[C@H]3CO[C@](Cn4cncn4)(c4ccc(Cl)cc4Cl)O3)cc2)CC1 | 103 |
| COc1cc2cc(Oc3ccc(NC(=O)Nc4cccc(C(F)(F)F)c4)cc3)c(C)nc2cc1OCCN1CCCCC1 | -84.2 |
| O=c1ccc2ccccc2o1 | 114 |
| COc1cc(/C=N/NC(=O)c2cnn3c2NC(c2ccccc2)C3)cc(OC)c1OC (stereo unspecified) | 26.7 |
| FC(F)(F)c1cc(CNc2ncc(Br)c(Cl)n2)cc(C(F)(F)F)c1 | 107 |

* * *

- Tested on: IGROV1 ovarian
- experimental.protocol: NCI-60 one-dose screen, 48 h (100 = growth as untreated, 0 = no growth, -100 = all killed)
- condition.description: 10 µM unless noted
This is part of a sample that, as a whole, favours compounds with a hit. Of some 83,000 tested, about 20% had one in any assay.

| compound | unit.annotation | growth |
| --- | --- | --- |
| O=C1C(Br)=C(c2ccccc2)C(=O)C(Br)=C1c1ccccc1 | % | 105 |
| Cc1ccc(C2SCC(=O)N2NC(=O)c2[nH]c3ccc(F)cc3c2-c2ccccc2)cc1 (stereo not given) | % | 88.4 |
| c1ccc(-c2n(Cc3ccc4ccccc4n3)c3ccccc3[n+]2Cc2ccc3ccccc3n2)cc1 | % | -34.3 |
| O=C1/C(=C/c2ccc(Cl)cc2)CN(Cc2cn(CCCNc3ccnc4cc(Cl)ccc34)nn2)C/C1=C\c1ccc(Cl)cc1 | % | -0.666 |
| CN1CCn2c(c(Sc3ccc(C(=O)NO)cc3)c3ccccc32)C1=O | % | -44.1 |

* * *

- System: U251 CNS
- experimental.protocol: NCI-60 one-dose screen, 48 h
- condition.description: 10 µM unless noted
This is part of a sample that, as a whole, favours compounds with a hit. Of some 83,000 tested, about 20% had one in any assay. Activity calls are given as the source filed them. The calls were made as follows: active = growth percent below 10; inactive = the rest.
Outcomes: YES (active), NO (inactive)

| compound | class.assignment |
| --- | --- |
| COC(=O)c1ccc(C(=O)Nc2ccccc2N)cc1 | NO |
| CN1CCN(c2nc(-c3ccncc3)nc3sc4c(c23)CCCCCC4)CC1 | NO |
| O=C(CCc1nnc2sc(/C=C\c3ccccc3)nn12)c1nc2ccccc2[nH]1 | NO |
| CCN(CC)CCCNc1ccc(C)c2sc3ccccc3c(=O)c12 | NO |
| COc1cccc(OC(=O)c2ccccc2)c1OC(=O)c1ccccc1 | NO |
| O=S(=O)(Nc1ccccc1Cl)c1ccc(-c2cnc(C3CC3)o2)cc1 | NO |
| O=c1oc2ccccc2cc1-c1csc(N=Nc2c(O)[nH]c3ccc(Br)cc23)n1 | NO |
| O=S(=O)(OCCO)c1ccccc1 | NO |
| Cc1ccc(C(=O)Nc2ccccc2N)cc1 | NO |
| c1ccc(-c2n(Cc3ccc4ccccc4c3)c3ccccc3[n+]2Cc2ccc3ccccc3c2)cc1 | YES |
| O=C1c2ccccc2-c2cn(Cc3ccccc3)c3cccc(c23)C1c1cccnc1 (configuration not stated) | NO |
| O=C(CCCCCCC(=O)Nc1ccc2c(c1)/C(=C/c1ccc[nH]1)C(=O)N2)NO | YES |
| CC(=O)Nc1ccccc1-c1n[nH]c(=O)[nH]c1=O | NO |
| Cc1c(C(=O)Nc2nc(-c3ccccc3)cs2)nnn1-c1cccc2ccccc12 | NO |
| COc1cccc(C2C3=C(COC3=O)N(CCO)c3cc4c(cc32)CCC4)c1 (configuration not stated) | YES |
| CC(=O)OC[C@H](O)[C@@]1(O)CC[C@H]2[C@@H]3CCC4=CC(=O)CC[C@]4(C)[C@H]3[C@@H](O)C[C@@]21C | NO |
| COc1cc2cc(Oc3ccc(NC(=O)Nc4cccc(C(F)(F)F)c4)cc3)c(C)nc2cc1OCCN1CCCCC1 | YES |
| O=C(c1ccccc1)C(Br)C(Br)c1cccc([N+](=O)[O-])c1 (configuration not stated) | NO |
| COc1ccc(Nc2nc(NCCNc3ccnc4cc(Cl)ccc34)nc(N3CCOCC3)n2)cc1 | NO |
| COc1ccc(Sc2ccc3[nH]c(=O)nc(N)c3c2)cc1 | NO |
| Nc1cc2[nH]c(=O)c3ccccc3c2cc1Br | NO |
| Cn1c2ccccc2c2nn(C(=O)c3ccccc3)c(=O)nc21 | NO |
